Assignment: determine reported pIC50 for the given compounds.
Test system: A549
test: cells
condition.details: Homo sapiens, A549, 72 h
Description: Antiproliferative activity against human A549 cells after 72 hrs by MTT assay
Remember the convention: pIC50 equals -log10 of concentration in molar.

In: Using the record for CC(=O)O[C@H]1C(=O)[C@@]2(C)[C@H]([C@H](OC(=O)c3ccccc3)[C@]3(O)C[C@H](OC(=O)[C@H](O)[C@@H](NC(=O)c4ccccc4)c4ccccc4)C(C)=C1C3(C)C)[C@]1(OC(C)=O)CO[C@@H]1C[C@@H]2O , report its pIC50.
Out: 8.15

In: Please give the result for CCOC(=O)N1CCN(/[N+]([O-])=N/Oc2ccc([N+](=O)[O-])cc2[N+](=O)[O-])CC1 too.
Out: 5.64

In: Please give the result for COC(=O)[C@]12CCC(C)(C)C[C@H]1[C@H]1C(=O)C=C3[C@@]4(C)C=C(C#N)C(=O)C(C)(C)[C@@H]4CC[C@@]3(C)[C@]1(C)CC2 too.
Out: 5.68

In: Please give the result for C[C@H](N)C(=O)OCCN(C)/[N+]([O-])=N/Oc1cc(N2CCN(C(=O)[C@]34CCC(C)(C)C[C@H]3[C@H]3C(=O)C=C5[C@@]6(C)C=C(C#N)C(=O)C(C)(C)[C@@H]6CC[C@@]5(C)[C@]3(C)CC4)CC2)c([N+](=O)[O-])cc1[N+](=O)[O-] too.
Out: 5.97

In: Please give the result for CN(CCO)/[N+]([O-])=N/Oc1cc(NCCOC(=O)[C@]23CCC(C)(C)C[C@H]2[C@H]2C(=O)C=C4[C@@]5(C)C=C(C#N)C(=O)C(C)(C)[C@@H]5CC[C@@]4(C)[C@]2(C)CC3)c([N+](=O)[O-])cc1[N+](=O)[O-] too.
Out: 5.84

In: Please give the result for CN(CCO)/[N+]([O-])=N/Oc1cc(N2CCN(C(=O)[C@]34CCC(C)(C)C[C@H]3[C@H]3C(=O)C=C5[C@@]6(C)C=C(C#N)C(=O)C(C)(C)[C@@H]6CC[C@@]5(C)[C@]3(C)CC4)CC2)c([N+](=O)[O-])cc1[N+](=O)[O-] too.
Out: 5.97

In: Please give the result for C[C@H](N)C(=O)OCCN(C)/[N+]([O-])=N/Oc1cc(NCCOC(=O)[C@]23CCC(C)(C)C[C@H]2[C@H]2C(=O)C=C4[C@@]5(C)C=C(C#N)C(=O)C(C)(C)[C@@H]5CC[C@@]4(C)[C@]2(C)CC3)c([N+](=O)[O-])cc1[N+](=O)[O-] too.
Out: 5.84

In: Please give the result for CC1(C)CC[C@]2(C(=O)N3CCN(c4cc(O/N=[N+](\[O-])N5CCOCC5)c([N+](=O)[O-])cc4[N+](=O)[O-])CC3)CC[C@]3(C)[C@H](C(=O)C=C4[C@@]5(C)C=C(C#N)C(=O)C(C)(C)[C@@H]5CC[C@]43C)[C@@H]2C1 too.
Out: 5.97
